Species on record: Rattus norvegicus
Test: Open TG-GATES - Regimen: Daily Repeat
Assay type: toxicity, organism-based, Sprague-Dawley
Design: regimen Daily Repeat, gender Male, age 6 weeks
Conditions: in vivo, po, 0 mg/kg, […], tissue Plasma, route gavage, dose level Control, time 14 day
observed_property: BUN (mg/dL)

INSERT INTO measurements (molecule, unit_spec, experimental_value) VALUES
  ('Cn1cnc([N+](=O)[O-])c1Sc1ncnc2nc[nH]c12 [AZATHIOPRINE]', 'mg/dL', 17.8),
  ('O=C1CN(/N=C/c2ccc(-c3ccc([N+](=O)[O-])cc3)o2)C(O)=N1 [DANTROLENE]', 'mg/dL', 17.8),
  ('Cc1cccc(Nc2cc(Cl)nc(SCC(=O)O)n2)c1C [PIRINIXIC ACID]', 'mg/dL', 16),
  ('Cc1cnc(NC(=O)C2=C(O)c3ccccc3S(=O)(=O)N2C)s1 [MELOXICAM]', 'mg/dL', 16.4),
  ('C=CCO [ALLYL ALCOHOL]', 'mg/dL', 14.8),
  ('COc1ccc(O)c(C(C)(C)C)c1.COc1ccc(O)cc1C(C)(C)C [BUTYLATED HYDROXYANISOLE]', 'mg/dL', 14.4);

----------
Species on record: Rattus norvegicus
Test: Open TG-GATES - Regimen: Daily Repeat
Type: toxicity, organism-based, Sprague-Dawley
Design: regimen Daily Repeat, gender Male, age 6 weeks
Conditions: in vivo, po, 0 mg/kg, […], tissue Plasma, route gavage, dose level Control, time 14 day
LDH values, listed per item
observed_property: LDH (IU/L)

INSERT INTO assay_data (molecule, experimental_value) VALUES
  ('O=C1CN(/N=C/c2ccc(-c3ccc([N+](=O)[O-])cc3)o2)C(O)=N1', 82.6),
  ('Cc1cccc(Nc2cc(Cl)nc(SCC(=O)O)n2)c1C', 78.8),
  ('COc1ccc(O)c(C(C)(C)C)c1.COc1ccc(O)cc1C(C)(C)C [BUTYLATED HYDROXYANISOLE]', 52),
  ('Cn1c(=O)c2c(ncn2C)n(C)c1=O', 181),
  ('COc1ccc(Cl)cc1C(=O)NCCc1ccc(S(=O)(=O)NC(=O)NC2CCCCC2)cc1 [GLYBURIDE]', 154.6),
  ('Cc1cnc(NC(=O)C2=C(O)c3ccccc3S(=O)(=O)N2C)s1', 178.6);

----------
Catalogue of molecules with associated KIDNEY_R
Organism: Rattus norvegicus
Test: Open TG-GATES - Regimen: Single
Format: toxicity, organism-based, Sprague-Dawley
Design: regimen Single, gender Male, age 6 weeks
Conditions: in vivo, po, 0 mg/kg, 24 h, tissue Kidney, route gavage, dose level Control
observed_property: KIDNEY_R (g)

INSERT INTO assay_data (molecule, unit_spec, experimental_value) VALUES
  ('Cn1cnc([N+](=O)[O-])c1Sc1ncnc2nc[nH]c12', 'g', 0.9),
  ('CNCCC(Oc1ccc(C(F)(F)F)cc1)c1ccccc1.Cl (stereo not drawn) [FLUOXETINE HYDROCHLORIDE]', 'g', 1),
  ('CS(=O)(=O)Nc1ccc([N+](=O)[O-])cc1Oc1ccccc1 [NIMESULIDE]', 'g', 1);

----------
Species on record: Rattus norvegicus
Assay: Open TG-GATES - Regimen: Daily Repeat
Type: toxicity, organism-based, Sprague-Dawley
Set-up: regimen Daily Repeat, gender Male, age 6 weeks
Conditions: in vivo, po, 0 mg/kg, […], tissue Plasma, route gavage, dose level Control, time 7 day
observed_property: ALT (IU/L)

INSERT INTO results (compound, unit_spec, experimental_value) VALUES
  ('O=C1NC(=O)C(c2ccccc2)(c2ccccc2)N1', 'IU/L', 34.8),
  ('Cn1c(=O)c2c(ncn2C)n(C)c1=O', 'IU/L', 46),
  ('C=CCO', 'IU/L', 34),
  ('COc1ccc(Cl)cc1C(=O)NCCc1ccc(S(=O)(=O)NC(=O)NC2CCCCC2)cc1 [GLYBURIDE]', 'IU/L', 36.6);

----------
Species on record: Rattus norvegicus
Test: Open TG-GATES - Regimen: Daily Repeat
Type: toxicity, organism-based, Sprague-Dawley
Design: regimen Daily Repeat, gender Male, age 6 weeks
Conditions: in vivo, po, 0 mg/kg, […], tissue Plasma, route gavage, dose level Control, time 14 day
observed_property: RALB (g/dL)

INSERT INTO assay_data (compound, observed_property, experimental_value) VALUES
  ('COc1ccc(O)c(C(C)(C)C)c1.COc1ccc(O)cc1C(C)(C)C [BUTYLATED HYDROXYANISOLE]', 'RALB', 2.7),
  ('O=P1(N(CCCl)CCCl)NCCCO1 (centres undefined) [CYCLOPHOSPHAMIDE ANHYDROUS]', 'RALB', 2.9),
  ('Cn1cnc([N+](=O)[O-])c1Sc1ncnc2nc[nH]c12 [AZATHIOPRINE]', 'RALB', 3),
  ('Cc1cccc(Nc2cc(Cl)nc(SCC(=O)O)n2)c1C [PIRINIXIC ACID]', 'RALB', 2.8);

----------
Species: Rattus norvegicus
Experiment: Open TG-GATES - Regimen: Single
Type: toxicity, organism-based, Sprague-Dawley
Parameters: regimen Single, gender Male, age 6 weeks
Conditions: in vivo, po, 0 mg/kg, 24 h, tissue Blood, route gavage, dose level Control
observed_property: Hb (g/dL)

INSERT INTO assay_data (compound, experimental_value) VALUES
  ('S=C=Nc1cccc2ccccc12 [1-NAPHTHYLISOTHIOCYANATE]', 13.4),
  ('COc1ccc(Cl)cc1C(=O)NCCc1ccc(S(=O)(=O)NC(=O)NC2CCCCC2)cc1 [GLYBURIDE]', 13.2),
  ('O=C1CN(/N=C/c2ccc(-c3ccc([N+](=O)[O-])cc3)o2)C(O)=N1', 13.2);

----------
# key: entry, value: Lym
Species: Rattus norvegicus
Assay: Open TG-GATES - Regimen: Daily Repeat
Assay type: toxicity, organism-based, Sprague-Dawley
Design: regimen Daily Repeat, gender Male, age 6 weeks
Details: in vivo, po, 0 mg/kg, […], tissue Blood, route gavage, dose level Control, time 14 day
observed_property: Lym (%)

INSERT INTO assay_data (molecule, observed_property, unit_spec, experimental_value) VALUES
  ('Cc1cnc(NC(=O)C2=C(O)c3ccccc3S(=O)(=O)N2C)s1', 'Lym', '%', 78.4),
  ('COc1ccc(O)c(C(C)(C)C)c1.COc1ccc(O)cc1C(C)(C)C [BUTYLATED HYDROXYANISOLE]', 'Lym', '%', 78.2),
  ('C=CCO', 'Lym', '%', 78.2),
  ('Cn1cnc([N+](=O)[O-])c1Sc1ncnc2nc[nH]c12', 'Lym', '%', 87),
  ('O=C1NC(=O)C(c2ccccc2)(c2ccccc2)N1', 'Lym', '%', 81.4);

----------
Species on record: Rattus norvegicus
Assay: Open TG-GATES - Regimen: Single
Assay type: toxicity, organism-based, Sprague-Dawley
Parameters: regimen Single, gender Male, age 6 weeks
Conditions: in vivo, po, 0 mg/kg, 24 h, tissue Blood, route gavage, dose level Control
Listed here: items and their measured APTT.
observed_property: APTT (s)

INSERT INTO measurements (compound, experimental_value) VALUES
  ('COc1ccc(Cl)cc1C(=O)NCCc1ccc(S(=O)(=O)NC(=O)NC2CCCCC2)cc1 [GLYBURIDE]', 18.3),
  ('C=CCO', 19.4),
  ('CS(=O)(=O)Nc1ccc([N+](=O)[O-])cc1Oc1ccccc1 [NIMESULIDE]', 16.3),
  ('COc1ccc(O)c(C(C)(C)C)c1.COc1ccc(O)cc1C(C)(C)C [BUTYLATED HYDROXYANISOLE]', 15.1),
  ('S=C=Nc1cccc2ccccc12 [1-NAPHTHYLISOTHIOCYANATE]', 17.8),
  ('Cc1cccc(Nc2cc(Cl)nc(SCC(=O)O)n2)c1C', 16.5);

----------
Species: Rattus norvegicus
Assay: Open TG-GATES - Regimen: Single
Assay type: toxicity, organism-based, Sprague-Dawley
Design: regimen Single, gender Male, age 6 weeks
Conditions: in vivo, po, 0 mg/kg, 24 h, tissue Plasma, route gavage, dose level Control
observed_property: TBIL

INSERT INTO measurements (compound, observed_property, experimental_value) VALUES
  ('C=CCO', 'TBIL', '0.2 mg/dL'),
  ('CS(=O)(=O)Nc1ccc([N+](=O)[O-])cc1Oc1ccccc1 [NIMESULIDE]', 'TBIL', '0.3 mg/dL'),
  ('Cn1cnc([N+](=O)[O-])c1Sc1ncnc2nc[nH]c12', 'TBIL', '0.006 mg/dL'),
  ('O=C1NC(=O)C(c2ccccc2)(c2ccccc2)N1', 'TBIL', '0.042 mg/dL');

----------
Organism: Rattus norvegicus
Assay: Open TG-GATES - Regimen: Single
Format: toxicity, organism-based, Sprague-Dawley
Design: regimen Single, gender Male, age 6 weeks
Conditions: in vivo, po, 0 mg/kg, 9 h, tissue Plasma, route gavage, dose level Control
observed_property: TC (mg/dL)

INSERT INTO assay_data (compound, experimental_value) VALUES
  ('O=C1CN(/N=C/c2ccc(-c3ccc([N+](=O)[O-])cc3)o2)C(O)=N1', 73.2),
  ('S=C=Nc1cccc2ccccc12 [1-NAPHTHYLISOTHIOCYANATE]', 74.4),
  ('C=CCO', 72.8),
  ('COc1ccc(Cl)cc1C(=O)NCCc1ccc(S(=O)(=O)NC(=O)NC2CCCCC2)cc1 [GLYBURIDE]', 72.8),
  ('COc1ccc(O)c(C(C)(C)C)c1.COc1ccc(O)cc1C(C)(C)C [BUTYLATED HYDROXYANISOLE]', 76.8),
  ('Cc1cnc(NC(=O)C2=C(O)c3ccccc3S(=O)(=O)N2C)s1', 70.6),
  ('Cn1cnc([N+](=O)[O-])c1Sc1ncnc2nc[nH]c12', 76.4),
  ('O=C1NC(=O)C(c2ccccc2)(c2ccccc2)N1', 72.4),
  ('Cc1cccc(Nc2cc(Cl)nc(SCC(=O)O)n2)c1C', 80.2);
